Molecular target: orexin-1 receptor (OX1R)
PROPERTY: Ki (nM)

Cc1ccc(-n2nccn2)c(C(=O)N2CC(COc3ccc(F)cn3)CC2C)c1 (single isomer, unassigned) = 37
